# target_entity: CAMK2A (human) (UniProt Q9UQM7)
# Sequence (Q9UQM7 whole entry, looked up): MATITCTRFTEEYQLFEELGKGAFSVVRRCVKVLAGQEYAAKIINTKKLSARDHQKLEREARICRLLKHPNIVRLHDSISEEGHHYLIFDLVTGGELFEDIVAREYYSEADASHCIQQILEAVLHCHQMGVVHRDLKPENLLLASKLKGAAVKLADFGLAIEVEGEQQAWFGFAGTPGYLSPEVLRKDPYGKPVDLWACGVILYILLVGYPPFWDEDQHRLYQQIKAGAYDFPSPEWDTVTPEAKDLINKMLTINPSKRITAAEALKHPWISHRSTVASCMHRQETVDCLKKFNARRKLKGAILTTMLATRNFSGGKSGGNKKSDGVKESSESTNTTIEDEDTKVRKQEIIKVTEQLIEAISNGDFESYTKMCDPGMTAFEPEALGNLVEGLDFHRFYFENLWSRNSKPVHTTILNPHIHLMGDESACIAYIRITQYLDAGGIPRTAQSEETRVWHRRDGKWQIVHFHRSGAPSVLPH
# procedure_text: KINOMEscan competition binding
# test_conditions: compound 10.0 µM
assay_endpoint: kinase still bound, per cent of control (%)
Reply with just the number (in %).

Sample records with kinase still bound, per cent of control:
COc1cc2ncnc(-n3nc(-c4ccccn4)nc3N)c2cc1OC : 44
CCN(CC)CCCCNc1ncc2c(n1)N(C)C(=O)N(c1c(Cl)c(OC)cc(OC)c1Cl)C2 : 100
COc1cc(N2CCN(C)CC2)ccc1Nc1ncc2c(n1)N(C)c1ccccc1C(=O)N2C : 32
COc1ccc(N(C(=O)Oc2c(C)cccc2C)c2ccnc(Nc3ccc(N4CCN(C)CC4)cc3)n2)c(OC)c1 : 84
O=c1cc(N2CCOCC2)oc2c(-c3cccc4c3sc3ccccc34)cccc12 : 78
O=C1NC(=O)/C(=C/c2ccc3nccc(-c4ccncc4)c3c2)S1 : 4.8
CCN(CC)CCCCNc1ncc2cc(-c3cc(OC)cc(OC)c3)c(NC(=O)NC(C)(C)C)nc2n1 : 100
CCN1CCN(C(=O)Cc2ccc(Nc3ncc(F)c(Nc4ccc(C(=O)Nc5ccccc5Cl)cc4)n3)cc2)CC1 : 68

Next item in the queue.
Short answer for COc1cc(C(=O)N2CCC(N3CCN(C)CC3)CC2)ccc1Nc1ncc2c(n1)N(C)c1ccccc1C(=O)N2C : kinase still bound, per cent of control was 21

----------
# target_entity: NUAK2 (human) (UniProt Q9H093)
# Sequence (Q9H093 whole entry, looked up): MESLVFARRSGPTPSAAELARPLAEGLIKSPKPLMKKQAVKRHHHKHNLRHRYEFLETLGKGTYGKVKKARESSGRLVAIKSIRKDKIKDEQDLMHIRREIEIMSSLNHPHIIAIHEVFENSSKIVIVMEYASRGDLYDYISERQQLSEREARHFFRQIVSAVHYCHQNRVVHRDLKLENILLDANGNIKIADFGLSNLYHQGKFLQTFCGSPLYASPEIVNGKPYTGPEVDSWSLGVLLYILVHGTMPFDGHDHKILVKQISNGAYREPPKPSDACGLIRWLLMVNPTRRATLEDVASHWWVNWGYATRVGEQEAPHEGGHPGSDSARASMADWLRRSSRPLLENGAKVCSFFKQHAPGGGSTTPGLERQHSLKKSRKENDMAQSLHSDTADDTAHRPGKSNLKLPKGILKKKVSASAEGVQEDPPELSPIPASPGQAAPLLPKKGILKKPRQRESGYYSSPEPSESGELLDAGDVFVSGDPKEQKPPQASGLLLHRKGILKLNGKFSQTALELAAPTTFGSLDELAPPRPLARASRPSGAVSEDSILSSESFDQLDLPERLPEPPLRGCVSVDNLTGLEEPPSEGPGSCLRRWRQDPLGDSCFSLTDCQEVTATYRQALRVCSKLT
# procedure_text: KINOMEscan competition binding
# test_conditions: compound 10.0 µM
assay_endpoint: kinase still bound, per cent of control

Sample records with kinase still bound, per cent of control:
O=C(Nc1cccc(Nc2ncc(Br)c(NCCc3cnc[nH]3)n2)c1)N1CCCC1 : 3.8%
CCN1CCN(C(=O)Cc2ccc(Nc3ncc(F)c(Nc4ccc(C(=O)Nc5ccccc5Cl)cc4)n3)cc2)CC1 : 23%
COc1cc2ncnc(-n3nc(-c4ccccn4)nc3N)c2cc1OC : 37%

Short answer for Cc1n[nH]c2ccc(-c3cncc(OC[C@@H](N)Cc4c[nH]c5ccccc45)c3)cc12 : kinase still bound, per cent of control was 1.9%

----------
# target_entity: PRKD1 (human)
# procedure_text: KINOMEscan competition binding
# test_conditions: compound 10.0 µM
assay_endpoint: kinase still bound, per cent of control (%)
Reply with just the number (in %).

Sample records with kinase still bound, per cent of control:
COc1cc(N2CCN(C)CC2)ccc1Nc1ncc2c(n1)N(C)c1ccccc1C(=O)N2C : 3.8
O=c1cc(N2CCOCC2)oc2c(-c3cccc4c3sc3ccccc34)cccc12 : 98
NC(=O)Nc1cc(-c2cccc(F)c2)sc1C(=O)N[C@@H]1CCCNC1 : 0.3
C=CC(=O)Nc1cc(-n2c(=O)ccc3cnc4ccc(-c5cn[nH]c5)cc4c32)ccc1C : 100
COc1cc(C(=O)N2CCC(N3CCN(C)CC3)CC2)ccc1Nc1ncc2c(n1)N(C)c1ccccc1C(=O)N2C : 28

Short answer for O=C1NC(=O)/C(=C/c2ccc3nccc(-c4ccncc4)c3c2)S1 : kinase still bound, per cent of control was 89

Short answer for CCN(CC)CCCCNc1ncc2cc(-c3cc(OC)cc(OC)c3)c(NC(=O)NC(C)(C)C)nc2n1 : kinase still bound, per cent of control was 100

Short answer for O=C(Nc1cccc(Nc2ncc(Br)c(NCCc3cnc[nH]3)n2)c1)N1CCCC1 : kinase still bound, per cent of control was 0.65

Short answer for CNC(=O)c1ccc(Nc2cc(Nc3ccccc3S(=O)(=O)C(C)C)c3cc[nH]c3n2)nc1 : kinase still bound, per cent of control was 100

Short answer for COc1cc2ncnc(-n3nc(-c4ccccn4)nc3N)c2cc1OC : kinase still bound, per cent of control was 88

Short answer for N#CCNC(=O)c1ccc(-c2ccnc(Nc3ccc(N4CCOCC4)cc3)n2)cc1 : kinase still bound, per cent of control was 22

Short answer for CN(C)C/C=C/C(=O)Nc1ccc(C(=O)Nc2cccc(Nc3nccc(-c4cccnc4)n3)c2)cc1 : kinase still bound, per cent of control was 100

Short answer for CCN(CC)CCCCNc1ncc2c(n1)N(C)C(=O)N(c1c(Cl)c(OC)cc(OC)c1Cl)C2 : kinase still bound, per cent of control was 100

Short answer for C[C@@H](Oc1cc(-c2cnn(C3CCNCC3)c2)cnc1N)c1c(Cl)ccc(F)c1Cl : kinase still bound, per cent of control was 2.4

Short answer for COc1ccc(N(C(=O)Oc2c(C)cccc2C)c2ccnc(Nc3ccc(N4CCN(C)CC4)cc3)n2)c(OC)c1 : kinase still bound, per cent of control was 9.3

Short answer for COCC(=O)NC/C=C/c1ccc2ncnc(Nc3ccc(Oc4ccc(C)nc4)c(C)c3)c2c1 : kinase still bound, per cent of control was 85

Short answer for CS(=O)(=O)N1CCN(Cc2cc3nc(-c4cccc5[nH]ncc45)nc(N4CCOCC4)c3s2)CC1 : kinase still bound, per cent of control was 100

Short answer for Cc1n[nH]c2ccc(-c3cncc(OC[C@@H](N)Cc4c[nH]c5ccccc45)c3)cc12 : kinase still bound, per cent of control was 2

Short answer for CNC(=O)c1cc(Oc2ccc(NC(=O)Nc3ccc(Cl)c(C(F)(F)F)c3)cc2)ccn1 : kinase still bound, per cent of control was 32
